Data origin, for the record: patent US20210388087A1

- system_under_test: T1, human CD137-Fc (human, biotin-labeled)
- T1 construct: if 90 already holds the Fc, drop the second piece; also called biotin-labeled human CD137 fused to human IgG1 Fc fragment; biotin-human CD137-Fc; not shown: human IgG1 Fc fragment
- test_protocol: bead ELISA on biotin-human CD137-Fc, free CD3e peptide vs free Fc
property_label: Signal decrease (%)
# number only, unit % dropped from output

Inquiry: # input binder: DXDU01_3#094 (antibody, V domains shown, Human IgG1; light chain GLS3000 (kappa); also called dBBDu121) VH: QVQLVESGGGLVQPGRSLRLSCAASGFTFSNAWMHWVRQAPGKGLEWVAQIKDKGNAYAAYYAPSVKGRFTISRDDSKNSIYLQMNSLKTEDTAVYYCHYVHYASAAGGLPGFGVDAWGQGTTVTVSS VL: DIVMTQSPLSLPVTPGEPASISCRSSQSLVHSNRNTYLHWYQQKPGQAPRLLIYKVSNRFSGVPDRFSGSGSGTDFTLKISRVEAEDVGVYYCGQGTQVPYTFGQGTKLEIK ; wanted: its Signal decrease
Reply text: 91.1
